measurement protocol: Study 2: concentrations of methadone in rat plasma, topical administration versus intravenous injection
Type: in vivo
experimental context: rat, in vivo, 0.2 mL of 10% methadone solution; Study 2 Group C: topical dorsal flank, 1 × 1 cm gauze pad with 0.2 mL Test Article 3 (Methadone-DEET Solution 10%); 1440 min; individual rats C1-C3; read-out: Concentrations of Methadone in Rat Plasma Samples
measured attribute: concentration at 1440 min (ng/mL)
# value in ng/mL; strip the unit string

Problem: Form field: reported concentration at 1440 min of CCC(=O)C(CC(C)N(C)C)(c1ccccc1)c1ccccc1 (stereo not shown) [Methadone, 6-dimethylamino-4,4-diphenyl-3-hepatone]
Solution: 27.8

* * *

measurement protocol: Study 2: concentrations of methadone in rat plasma, topical administration versus intravenous injection
Type: in vivo
experimental context: rat, in vivo, 0.2 mL of 23.9% methadone solution; Study 2 Group B: topical dorsal flank, 1 × 1 cm gauze pad with 0.2 mL Test Article 2 (Methadone-Diisopropyl Adipate Solution 23.9%); 15 min; individual rats B1-B3; read-out: Concentrations of Methadone in Rat Plasma Samples
measured attribute: concentration at 15 min (ng/mL)
# value in ng/mL; strip the unit string

Problem: Form field: reported concentration at 15 min of CCC(=O)C(CC(C)N(C)C)(c1ccccc1)c1ccccc1 (stereo not shown)
Solution: 2.75

* * *

measurement protocol: Pharmacokinetic study B: methadone patch, human plasma
Format: in vivo
experimental context: topical, Study B: 5 × 5 cm SIS patch (Methadone 10 weight %), 25 mg Methadone free base, applied 12 hours, left leg inner side above knee, 55 kg person, 12 hr, read-out: Concentrations of Methadone in Human Plasma Samples
measured attribute: concentration at 12 h (ng/mL)
# value in ng/mL; strip the unit string

Problem: Form field: reported concentration at 12 h of CCC(=O)C(CC(C)N(C)C)(c1ccccc1)c1ccccc1 (stereo not shown)
Solution: 5.36

* * *

measurement protocol: Solubility of methadone in different solvents
Type: physicochemical
experimental context: organic solvent or mixture; Di(propylene glycol), 24 hour
measured attribute: solubility at 24 h (mg/mL)
# value in mg/mL; strip the unit string

Problem: Form field: reported solubility at 24 h of CCC(=O)C(CC(C)N(C)C)(c1ccccc1)c1ccccc1 (stereo not shown)
Solution: 54.9

* * *

measurement protocol: Solubility of methadone in different solvents
Format: physicochemical
experimental context: organic solvent or mixture; Di(propylene glycol), 48 hour
measured attribute: solubility at 48 h (mg/mL)
# value in mg/mL; strip the unit string

Problem: Form field: reported solubility at 48 h of CCC(=O)C(CC(C)N(C)C)(c1ccccc1)c1ccccc1 (stereo not shown)
Solution: 58.7

* * *

measurement protocol: Solubility of methadone in different solvents
Type: physicochemical
experimental context: organic solvent or mixture; DEET (97%), 48 hour
measured attribute: solubility at 48 h (mg/mL)
# value in mg/mL; strip the unit string

Problem: Form field: reported solubility at 48 h of CCC(=O)C(CC(C)N(C)C)(c1ccccc1)c1ccccc1 (stereo not shown)
Solution: 132

* * *

measurement protocol: Study 2: concentrations of methadone in rat plasma, topical administration versus intravenous injection
Format: in vivo
experimental context: rat, in vivo, 0.2 mL of 10% methadone solution; Study 2 Group C: topical dorsal flank, 1 × 1 cm gauze pad with 0.2 mL Test Article 3 (Methadone-DEET Solution 10%); 90 min; individual rats C1-C3; read-out: Concentrations of Methadone in Rat Plasma Samples
measured attribute: concentration at 90 min (ng/mL)
# value in ng/mL; strip the unit string

Problem: Form field: reported concentration at 90 min of CCC(=O)C(CC(C)N(C)C)(c1ccccc1)c1ccccc1 (stereo not shown)
Solution: 3.17

* * *

measurement protocol: Solubility of methadone in different solvents
Assay type: physicochemical
experimental context: organic solvent or mixture, thermodynamic from solid; diisopropyl adipate, 3 hour
measured attribute: solubility at 3 h (mg/mL)
# value in mg/mL; strip the unit string

Problem: Form field: reported solubility at 3 h of CCC(=O)C(CC(C)N(C)C)(c1ccccc1)c1ccccc1 (stereo not shown)
Solution: 343

* * *

measurement protocol: Study 1: concentrations of methadone in rat plasma, topical administration versus intravenous injection
Format: in vivo
experimental context: rat, in vivo, 0.2 mL of 23.9% methadone-diisopropyl adipate solution; Study 1 Group B: topical dorsal flank, 1 × 1 cm gauze pad with 0.2 mL Test Article 2 (Methadone-Diisopropyl Adipate Solution 23.9%); 20 min; individual rats B1-B3; read-out: Concentrations of Methadone in Rat Plasma Samples
Method: The test article was administered intravenously (IV) through the tail vein to animals in Group A. The injection was performed slowly. A gauze pad (1×1 cm) Saturated with 0.2 mL of the appropriate test article was applied to the clipped site on the back of the animals in Groups 2 and 3. The gauze pad was secured by occlusive tape. The animal was wrapped in gauze, which was held in place with Zonas porous tape. […]
measured attribute: concentration at 20 min (ng/mL)
# value in ng/mL; strip the unit string

Problem: Form field: reported concentration at 20 min of CCC(=O)C(CC(C)N(C)C)(c1ccccc1)c1ccccc1 (stereo not shown)
Solution: 4.14

* * *

measurement protocol: Study 2: concentrations of methadone in rat plasma, topical administration versus intravenous injection
Assay type: in vivo
experimental context: rat, in vivo, 0.2 mL of 10% methadone solution; Study 2 Group C: topical dorsal flank, 1 × 1 cm gauze pad with 0.2 mL Test Article 3 (Methadone-DEET Solution 10%); 45 min; individual rats C1-C3; read-out: Concentrations of Methadone in Rat Plasma Samples
measured attribute: concentration at 45 min (ng/mL)
# value in ng/mL; strip the unit string

Problem: Form field: reported concentration at 45 min of CCC(=O)C(CC(C)N(C)C)(c1ccccc1)c1ccccc1 (stereo not shown)
Solution: 2.08

* * *

measurement protocol: Study 2: concentrations of methadone in rat plasma, topical administration versus intravenous injection
Type: in vivo
experimental context: rat, in vivo, iv, 0.125 mg; Study 2 Group A: I.V. tail vein, 0.25 mL Test Article 1 (0.5 mg/mL Methadone-Saline Solution); 480 min; individual rats A1-A3; read-out: Concentrations of Methadone in Rat Plasma Samples
Procedure: The test article was administered intravenously (IV) through the tail vein to animals in Group A. The injection was performed slowly. A gauze pad (1×1 cm) Saturated with 0.2 mL of the appropriate test article was applied to the clipped site on the back of the animals in Groups 2 and 3. The gauze pad was secured by occlusive tape. The animal was wrapped in gauze, which was held in place with Zonas porous tape. […]
measured attribute: concentration at 480 min (ng/mL)
# value in ng/mL; strip the unit string

Problem: Form field: reported concentration at 480 min of CCC(=O)C(CC(C)N(C)C)(c1ccccc1)c1ccccc1 (stereo not shown) [Methadone, 6-dimethylamino-4,4-diphenyl-3-hepatone]
Solution: 1.54

* * *

measurement protocol: Study 2: concentrations of methadone in rat plasma, topical administration versus intravenous injection
Type: in vivo
experimental context: rat, in vivo, iv, 0.125 mg; Study 2 Group A: I.V. tail vein, 0.25 mL Test Article 1 (0.5 mg/mL Methadone-Saline Solution); 40 min; individual rats A1-A3; read-out: Concentrations of Methadone in Rat Plasma Samples
Procedure: The test article was administered intravenously (IV) through the tail vein to animals in Group A. The injection was performed slowly. A gauze pad (1×1 cm) Saturated with 0.2 mL of the appropriate test article was applied to the clipped site on the back of the animals in Groups 2 and 3. The gauze pad was secured by occlusive tape. The animal was wrapped in gauze, which was held in place with Zonas porous tape. […]
measured attribute: concentration at 40 min (ng/mL)
# value in ng/mL; strip the unit string

Problem: Form field: reported concentration at 40 min of CCC(=O)C(CC(C)N(C)C)(c1ccccc1)c1ccccc1 (stereo not shown) [Methadone, 6-dimethylamino-4,4-diphenyl-3-hepatone]
Solution: 35.4

* * *

measurement protocol: Study 1: concentrations of methadone in rat plasma, topical administration versus intravenous injection
Assay type: in vivo
experimental context: rat, in vivo, 0.2 mL of 10% methadone solution; Study 1 Group C: topical dorsal flank, 1 × 1 cm gauze pad with 0.2 mL Test Article 3 (Methadone-DEET Solution 10%); 120 min; individual rats C1-C3; read-out: Concentrations of Methadone in Rat Plasma Samples
measured attribute: concentration at 120 min (ng/mL)
# value in ng/mL; strip the unit string

Problem: Form field: reported concentration at 120 min of CCC(=O)C(CC(C)N(C)C)(c1ccccc1)c1ccccc1 (stereo not shown) [Methadone, 6-dimethylamino-4,4-diphenyl-3-hepatone]
Solution: 6.85

* * *

measurement protocol: Study 2: concentrations of methadone in rat plasma, topical administration versus intravenous injection
Assay type: in vivo
experimental context: rat, in vivo, iv, 0.125 mg; Study 2 Group A: I.V. tail vein, 0.25 mL Test Article 1 (0.5 mg/mL Methadone-Saline Solution); 2 min; individual rats A1-A3; read-out: Concentrations of Methadone in Rat Plasma Samples
measured attribute: concentration at 2 min (ng/mL)
# value in ng/mL; strip the unit string

Problem: Form field: reported concentration at 2 min of CCC(=O)C(CC(C)N(C)C)(c1ccccc1)c1ccccc1 (stereo not shown)
Solution: 36.3
